# assay_target: 5-hydroxytryptamine receptor 2A (Homo sapiens)
# Sequence (P28223 whole entry): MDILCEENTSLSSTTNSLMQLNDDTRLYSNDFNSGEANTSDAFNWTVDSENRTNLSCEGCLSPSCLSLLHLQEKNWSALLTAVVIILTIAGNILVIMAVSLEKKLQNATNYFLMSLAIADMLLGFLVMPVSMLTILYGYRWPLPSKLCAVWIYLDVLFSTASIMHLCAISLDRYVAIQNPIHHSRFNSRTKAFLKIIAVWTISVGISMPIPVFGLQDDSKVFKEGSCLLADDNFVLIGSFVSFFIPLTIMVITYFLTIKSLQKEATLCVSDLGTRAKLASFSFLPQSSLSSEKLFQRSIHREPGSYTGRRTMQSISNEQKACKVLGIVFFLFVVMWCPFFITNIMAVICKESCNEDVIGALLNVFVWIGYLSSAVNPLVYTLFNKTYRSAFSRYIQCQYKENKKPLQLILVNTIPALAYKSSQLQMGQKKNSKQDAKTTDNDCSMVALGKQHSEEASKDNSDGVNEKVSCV

[
  {
    "compound": "CC(N)Cc1c2ccoc2c(Br)c2ccoc12 (racemic)",
    "assay_target": "5-hydroxytryptamine receptor 2A (Homo sapiens)",
    "Ki (pM)": 40
  }
]

---

# assay_target: UniProt P41595
# Sequence (P41595 whole entry): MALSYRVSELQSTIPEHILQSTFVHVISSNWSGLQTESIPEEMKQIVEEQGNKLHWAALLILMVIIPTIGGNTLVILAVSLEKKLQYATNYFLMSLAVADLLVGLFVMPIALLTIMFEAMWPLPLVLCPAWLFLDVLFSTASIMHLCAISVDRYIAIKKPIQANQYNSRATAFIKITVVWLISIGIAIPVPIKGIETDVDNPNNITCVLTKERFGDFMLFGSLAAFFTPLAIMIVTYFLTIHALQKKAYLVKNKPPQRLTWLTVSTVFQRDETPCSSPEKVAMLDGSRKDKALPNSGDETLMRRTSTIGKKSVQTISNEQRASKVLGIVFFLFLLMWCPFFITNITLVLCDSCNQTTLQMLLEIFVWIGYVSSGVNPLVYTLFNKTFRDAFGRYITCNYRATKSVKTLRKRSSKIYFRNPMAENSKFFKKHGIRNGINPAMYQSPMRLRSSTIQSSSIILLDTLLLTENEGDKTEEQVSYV
pKi: −log10 of the molar value.

[
  {
    "compound": "CC(N)Cc1c2ccoc2c(Br)c2ccoc12 (racemic)",
    "pKi": 9.72
  },
  {
    "compound": "COc1cc(CC(C)N)c(OC)cc1I (configuration not stated)",
    "pKi": 7.37
  }
]

---

# assay_target: 5-hydroxytryptamine receptor 2A (Rattus norvegicus, UniProt P14842)
# Sequence (P14842 whole entry): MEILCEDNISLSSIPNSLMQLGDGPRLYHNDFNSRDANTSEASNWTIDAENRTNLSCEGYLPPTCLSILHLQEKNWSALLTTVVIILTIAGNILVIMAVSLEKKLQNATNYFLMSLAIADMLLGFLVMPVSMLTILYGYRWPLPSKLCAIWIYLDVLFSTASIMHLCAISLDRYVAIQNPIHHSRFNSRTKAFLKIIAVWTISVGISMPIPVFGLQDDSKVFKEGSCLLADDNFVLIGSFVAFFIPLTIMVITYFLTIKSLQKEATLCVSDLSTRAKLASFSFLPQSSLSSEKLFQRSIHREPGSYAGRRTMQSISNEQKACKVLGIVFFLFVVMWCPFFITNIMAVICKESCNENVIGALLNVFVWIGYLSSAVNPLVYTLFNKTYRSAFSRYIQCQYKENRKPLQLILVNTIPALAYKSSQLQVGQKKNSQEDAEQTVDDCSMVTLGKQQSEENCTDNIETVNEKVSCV
# protocol_details: […] measured for 5-hydroxytryptamine 2A receptor using [3H]-MDL- 100,907 as radioligand in rat cortical homogenates.
recorded_endpoint: Ki (nM)

[
  {
    "molecule": "CC(N)Cc1c2c(c(Br)c3c1OCC3)OCC2 (configuration not stated)",
    "readout_unit": "nM",
    "observed_result": 14.8
  },
  {
    "molecule": "CC(N)Cc1c2ccoc2c(Br)c2ccoc12 (configuration not stated)",
    "readout_unit": "nM",
    "observed_result": 0.23
  }
]
